Test system: NCI-H596
Assay: relative viability (nuclei count vs DMSO), 5 days (fraction); higher = more cells survive
Assay Conditions: first compound 0.05 µM
Metric: relative viability

Nc1ccn([C@@H]2O[C@H](CO)[C@@H](O)[C@@H]2O)c(=O)n1 [Cytarabine] + Cc1nc(Nc2ncc(C(=O)Nc3c(C)cccc3Cl)s2)cc(N2CCN(CCO)CC2)n1 [Dasatinib] (partner 0.075 µM) :: 0.601
Nc1ccn([C@@H]2O[C@H](CO)[C@@H](O)[C@@H]2O)c(=O)n1 [Cytarabine] + C[C@]1(O)C[C@@H](c2nc(-c3ccc4ccc(-c5ccccc5)nc4c3)c3c(N)nccn32)C1 [Linsitinib] (partner 1 µM) :: 0.763
COc1cc2nccc(Oc3ccc(NC(=O)Nc4cc(C)on4)c(Cl)c3)c2cc1OC [Tivozanib] + CS(=O)(=O)CCNCc1ccc(-c2ccc3ncnc(Nc4ccc(OCc5cccc(F)c5)c(Cl)c4)c3c2)o1 [Lapatinib] (partner 2 µM) :: 1.04
Nc1ccn([C@@H]2O[C@H](CO)[C@@H](O)[C@@H]2O)c(=O)n1 [Cytarabine] + N=C(N)NC(=N)NCCc1ccccc1 [Phenformin] (partner 250 µM) :: 0.694
Nc1ccn([C@@H]2O[C@H](CO)[C@@H](O)[C@@H]2O)c(=O)n1 [Cytarabine] + CS(=O)(=O)CCNCc1ccc(-c2ccc3ncnc(Nc4ccc(OCc5cccc(F)c5)c(Cl)c4)c3c2)o1 [Lapatinib] (partner 2 µM) :: 0.785
COc1cc2nccc(Oc3ccc(NC(=O)Nc4cc(C)on4)c(Cl)c3)c2cc1OC [Tivozanib] + COc1cc2c(Oc3ccc(NC(=O)C4(C(=O)Nc5ccc(F)cc5)CC4)cc3F)ccnc2cc1OCCCN1CCOCC1 [Foretinib] (partner 0.25 µM) :: 0.846
COc1cc2nccc(Oc3ccc(NC(=O)Nc4cc(C)on4)c(Cl)c3)c2cc1OC [Tivozanib] + CC(=O)Nc1cccc(-n2c(=O)n(C3CC3)c(=O)c3c(Nc4ccc(I)cc4F)n(C)c(=O)c(C)c32)c1 [Trametinib] (partner 0.02 µM) :: 0.725
COc1cc2nccc(Oc3ccc(NC(=O)Nc4cc(C)on4)c(Cl)c3)c2cc1OC [Tivozanib] + CC(C)C[C@H](NC(=O)[C@H](Cc1ccccc1)NC(=O)c1cnccn1)B(O)O [Bortezomib] (partner 0.002 µM) :: 0.918
Nc1ccn([C@@H]2O[C@H](CO)[C@@H](O)[C@@H]2O)c(=O)n1 [Cytarabine] + CC(C)C[C@H](NC(=O)[C@H](Cc1ccccc1)NC(=O)c1cnccn1)B(O)O [Bortezomib] (partner 0.002 µM) :: 0.904

---

System: NCI-H358
Assay: relative viability (nuclei count vs DMSO), 5 days (fraction); higher = more cells survive
Assay Conditions: first compound 1.265 µM
// reported relative viability for each item listed
Metric: relative viability

Cc1sc2c(c1C)C(c1ccc(Cl)cc1)=N[C@@H](CC(=O)OC(C)(C)C)c1nnc(C)n1-2 [JQ1] + C[C@]1(O)C[C@@H](c2nc(-c3ccc4ccc(-c5ccccc5)nc4c3)c3c(N)nccn32)C1 [Linsitinib] (partner 1 µM) :: 0.442
Cc1sc2c(c1C)C(c1ccc(Cl)cc1)=N[C@@H](CC(=O)OC(C)(C)C)c1nnc(C)n1-2 [JQ1] + COc1cc2c(Oc3ccc(NC(=O)C4(C(=O)Nc5ccc(F)cc5)CC4)cc3F)ccnc2cc1OCCCN1CCOCC1 [Foretinib] (partner 0.25 µM) :: 0.259

---

System: NCI-H661
Assay: relative viability (nuclei count vs DMSO), 5 days (fraction); higher = more cells survive
Assay Conditions: first compound 0.253 µM
Metric: relative viability

Cc1cnc(-c2cnc(NCCNc3ccc(C#N)cn3)nc2-c2ccc(Cl)cc2Cl)[nH]1 + Cc1nc(Nc2ncc(C(=O)Nc3c(C)cccc3Cl)s2)cc(N2CCN(CCO)CC2)n1 [Dasatinib] (partner 0.075 µM) :: 0.778
O=c1[nH]c2ccccc2n1C1CCN(CCCC(c2ccc(F)cc2)c2ccc(F)cc2)CC1 [Pimozide] + Cc1nc(Nc2ncc(C(=O)Nc3c(C)cccc3Cl)s2)cc(N2CCN(CCO)CC2)n1 [Dasatinib] (partner 0.075 µM) :: 0.828

---

System: ABC-1
Assay: relative viability (nuclei count vs DMSO), 5 days (fraction); higher = more cells survive
Assay Conditions: first compound 0.5 µM
Threshold 0.3. relative viability below it: MET. relative viability at it or above: NOT MET.

COc1cc2nccc(Oc3ccc(NC(=O)Nc4cc(C)on4)c(Cl)c3)c2cc1OC [Tivozanib] + NC(=O)Nc1cc(-c2cccc(F)c2)sc1C(=O)N[C@H]1CCCNC1 [AZD7762] (partner 0.2 µM) :: NOT MET
COc1cc2nccc(Oc3ccc(NC(=O)Nc4cc(C)on4)c(Cl)c3)c2cc1OC [Tivozanib] + Cc1cc(Nc2cc(N3CCN(C)CC3)nc(Sc3ccc(NC(=O)C4CC4)cc3)n2)n[nH]1 [Tozasertib] (partner 0.1 µM) :: MET
Nc1ccn([C@@H]2O[C@H](CO)[C@@H](O)[C@@H]2O)c(=O)n1 [Cytarabine] + Cc1cc(Nc2cc(N3CCN(C)CC3)nc(Sc3ccc(NC(=O)C4CC4)cc3)n2)n[nH]1 [Tozasertib] (partner 0.1 µM) :: MET
COc1cc2nccc(Oc3ccc(NC(=O)Nc4cc(C)on4)c(Cl)c3)c2cc1OC [Tivozanib] + Cc1nc(Nc2ncc(C(=O)Nc3c(C)cccc3Cl)s2)cc(N2CCN(CCO)CC2)n1 [Dasatinib] (partner 0.075 µM) :: NOT MET
COc1cc2nccc(Oc3ccc(NC(=O)Nc4cc(C)on4)c(Cl)c3)c2cc1OC [Tivozanib] + C[C@]1(O)C[C@@H](c2nc(-c3ccc4ccc(-c5ccccc5)nc4c3)c3c(N)nccn32)C1 [Linsitinib] (partner 1 µM) :: NOT MET
COc1cc2nccc(Oc3ccc(NC(=O)Nc4cc(C)on4)c(Cl)c3)c2cc1OC [Tivozanib] + O=C(CCCCCCC(=O)Nc1ccccc1)NO [Vorinostat] (partner 1 µM) :: NOT MET
Nc1ccn([C@@H]2O[C@H](CO)[C@@H](O)[C@@H]2O)c(=O)n1 [Cytarabine] + COc1cc2c(Oc3ccc(NC(=O)C4(C(=O)Nc5ccc(F)cc5)CC4)cc3F)ccnc2cc1OCCCN1CCOCC1 [Foretinib] (partner 0.25 µM) :: NOT MET

---

System: H3255
Assay: relative viability (nuclei count vs DMSO), 5 days (fraction); higher = more cells survive
Assay Conditions: first compound 0.000632 µM
Reported relative viability values for a set of compounds
Metric: relative viability

CC(=O)O[C@@]12CO[C@@H]1C[C@H](O)[C@@]1(C)C(=O)[C@H](O)C3=C(C)[C@@H](OC(=O)[C@H](O)[C@@H](NC(=O)OC(C)(C)C)c4ccccc4)C[C@@](O)([C@@H](OC(=O)c4ccccc4)[C@H]21)C3(C)C [Docetaxel] + Cc1nc(Nc2ncc(C(=O)Nc3c(C)cccc3Cl)s2)cc(N2CCN(CCO)CC2)n1 [Dasatinib] (partner 0.075 µM) :: 0.439
CC(=O)O[C@@]12CO[C@@H]1C[C@H](O)[C@@]1(C)C(=O)[C@H](O)C3=C(C)[C@@H](OC(=O)[C@H](O)[C@@H](NC(=O)OC(C)(C)C)c4ccccc4)C[C@@](O)([C@@H](OC(=O)c4ccccc4)[C@H]21)C3(C)C [Docetaxel] + Cc1nc(NC(=O)N2CCC[C@H]2C(N)=O)sc1-c1ccnc(C(C)(C)C(F)(F)F)c1 [Alpelisib] (partner 2 µM) :: 0.722
CC(=O)O[C@@]12CO[C@@H]1C[C@H](O)[C@@]1(C)C(=O)[C@H](O)C3=C(C)[C@@H](OC(=O)[C@H](O)[C@@H](NC(=O)OC(C)(C)C)c4ccccc4)C[C@@](O)([C@@H](OC(=O)c4ccccc4)[C@H]21)C3(C)C [Docetaxel] + C[C@@H](Oc1cc(-c2cnn(C3CCNCC3)c2)cnc1N)c1c(Cl)ccc(F)c1Cl [Crizotinib] (partner 1 µM) :: 0.757
CC(=O)O[C@@]12CO[C@@H]1C[C@H](O)[C@@]1(C)C(=O)[C@H](O)C3=C(C)[C@@H](OC(=O)[C@H](O)[C@@H](NC(=O)OC(C)(C)C)c4ccccc4)C[C@@](O)([C@@H](OC(=O)c4ccccc4)[C@H]21)C3(C)C [Docetaxel] + CC1(C)CCC(c2ccc(Cl)cc2)=C(CN2CCN(c3ccc(C(=O)NS(=O)(=O)c4ccc(N[C@H](CCN5CCOCC5)CSc5ccccc5)c(S(=O)(=O)C(F)(F)F)c4)cc3)CC2)C1 [Navitoclax] (partner 0.5 µM) :: 0.46

---

Test system: NCI-H2347
Assay: relative viability (nuclei count vs DMSO), 5 days (fraction); higher = more cells survive
Assay Conditions: first compound 0.4 µM
Metric: relative viability

Cc1sc2c(c1C)C(c1ccc(Cl)cc1)=N[C@@H](CC(=O)OC(C)(C)C)c1nnc(C)n1-2 [JQ1] + CC1(C)CCC(c2ccc(Cl)cc2)=C(CN2CCN(c3ccc(C(=O)NS(=O)(=O)c4ccc(N[C@H](CCN5CCOCC5)CSc5ccccc5)c(S(=O)(=O)C(F)(F)F)c4)cc3)CC2)C1 [Navitoclax] (partner 0.5 µM) :: 0.571
Cc1sc2c(c1C)C(c1ccc(Cl)cc1)=N[C@@H](CC(=O)OC(C)(C)C)c1nnc(C)n1-2 [JQ1] + N=C(N)NC(=N)NCCc1ccccc1 [Phenformin] (partner 250 µM) :: 0.323
